- test target: human KLB and human FGFR1c co-expressed on HEK293/hKLB/hFGFR1c/SRE-luc cells (human, UniProt Q86Z14 1-1044; P11362 22-822)
- Sequence (Q86Z14 whole entry, chain 1 of 2): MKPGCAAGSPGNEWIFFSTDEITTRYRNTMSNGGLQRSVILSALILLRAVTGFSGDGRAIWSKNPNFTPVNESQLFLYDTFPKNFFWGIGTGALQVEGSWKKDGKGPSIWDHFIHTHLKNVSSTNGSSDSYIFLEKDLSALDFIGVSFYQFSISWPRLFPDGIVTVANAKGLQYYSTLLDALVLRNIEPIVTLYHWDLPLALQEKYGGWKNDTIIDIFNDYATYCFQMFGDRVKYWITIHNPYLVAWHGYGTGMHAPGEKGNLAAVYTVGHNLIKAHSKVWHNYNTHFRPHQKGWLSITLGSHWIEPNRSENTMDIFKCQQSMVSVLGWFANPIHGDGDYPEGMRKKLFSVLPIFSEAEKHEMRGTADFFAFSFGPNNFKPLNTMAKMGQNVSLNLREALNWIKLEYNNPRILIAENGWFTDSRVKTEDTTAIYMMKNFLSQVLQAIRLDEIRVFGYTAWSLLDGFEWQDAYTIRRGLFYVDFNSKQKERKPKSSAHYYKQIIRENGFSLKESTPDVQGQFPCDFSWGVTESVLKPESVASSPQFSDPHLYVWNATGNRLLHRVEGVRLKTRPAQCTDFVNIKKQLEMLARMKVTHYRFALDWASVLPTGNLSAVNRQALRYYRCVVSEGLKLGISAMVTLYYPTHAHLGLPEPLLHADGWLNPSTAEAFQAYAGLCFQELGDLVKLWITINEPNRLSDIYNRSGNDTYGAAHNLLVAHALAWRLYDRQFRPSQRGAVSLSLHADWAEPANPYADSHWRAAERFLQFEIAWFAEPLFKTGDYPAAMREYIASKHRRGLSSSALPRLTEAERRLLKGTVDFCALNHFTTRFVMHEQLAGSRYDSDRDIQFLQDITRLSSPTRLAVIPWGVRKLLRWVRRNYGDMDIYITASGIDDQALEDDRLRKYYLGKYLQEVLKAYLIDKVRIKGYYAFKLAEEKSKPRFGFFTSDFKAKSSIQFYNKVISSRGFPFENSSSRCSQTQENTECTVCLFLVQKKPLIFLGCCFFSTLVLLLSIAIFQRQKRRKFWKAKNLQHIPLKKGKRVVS
- Sequence (P11362 other isoform, or with tags, fused parts or gaps limits assumed, chain 2 of 2): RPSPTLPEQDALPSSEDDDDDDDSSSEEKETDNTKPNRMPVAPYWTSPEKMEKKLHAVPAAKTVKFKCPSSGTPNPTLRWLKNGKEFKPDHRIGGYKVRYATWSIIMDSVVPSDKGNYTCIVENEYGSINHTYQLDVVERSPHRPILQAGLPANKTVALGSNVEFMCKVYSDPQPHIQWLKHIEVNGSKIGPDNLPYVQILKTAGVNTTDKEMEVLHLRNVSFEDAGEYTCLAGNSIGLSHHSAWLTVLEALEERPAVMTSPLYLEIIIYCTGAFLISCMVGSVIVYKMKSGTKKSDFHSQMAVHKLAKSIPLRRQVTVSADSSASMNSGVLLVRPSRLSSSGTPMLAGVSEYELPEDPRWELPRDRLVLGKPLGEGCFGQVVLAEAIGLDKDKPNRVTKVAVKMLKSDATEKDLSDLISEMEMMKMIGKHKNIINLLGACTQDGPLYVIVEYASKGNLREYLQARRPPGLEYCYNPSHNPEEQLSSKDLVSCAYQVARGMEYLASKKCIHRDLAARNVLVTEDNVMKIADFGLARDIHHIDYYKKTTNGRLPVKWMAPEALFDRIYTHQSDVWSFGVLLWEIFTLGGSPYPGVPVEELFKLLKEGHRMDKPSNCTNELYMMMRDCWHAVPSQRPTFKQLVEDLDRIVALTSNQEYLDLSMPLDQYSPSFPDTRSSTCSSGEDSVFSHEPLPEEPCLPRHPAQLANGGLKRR
- test protocol: cell-based or functional assay
property measured: Maximum Activation (%) without ligand
Write it as a number; the unit % goes unstated.

INSERT INTO measurements (binder, result_number) VALUES
  ('H4H8852P (antibody, V domains shown, human IgG4 Fc (H4H prefix)) VH: QVQLQESGPGLVKPSETLSLTCTVSGGSISSYYWSWIRQPPGKGLEWIGYIYSSGIIKYNPSLKSRVTISADTSKNQFSLKLSSVTAADTAVYYCARHGIFGVMEYFQRWGQGTLVTVSS VL: DIQMTQSPSSLSASIGDRVTITCQASQDIGNFLNWYQQKPGKAPTLLIYDASNMETGVPSRFSGSGSGTYFTFTISSLQPEDVATYYCQQYDNLPLTFGGGTKVEIK', 5),
  ('H2aM8093N (antibody, V domains shown, mouse IgG2 Fc (H2aM prefix)) VH: QVQLVQSGAEVKRPGSSVKVSCKASGDTFSTYAISWVRQAPGQGLEWMGGIIPVFGTTNYAQKFQDRVTITTDESTRTAYMELSSLRSEDTAVYYCAGIAGPDYWGQGTLVTVSS VL: DIQMTQSPSSLSASVGDRVTITCRASQGIRNYLAWFQQKPGKAPKSLIYLATSLQSGVPSKFSGSGSGTDFTLTISSLQPEDFATYYCQQYYSYPWTFGQGTKVEIK', 1);

Next item in the queue.
Asked: Entry H4H8837P (antibody, V domains shown, human IgG4 Fc (H4H prefix)) VH: QVQLVESGGGVVQPGRSLRLSCAASGFTFNSYAMHWVRQAPGMGLEWVAVISSDGSNKYYADSVRGRFTVSRDNSKNTLYLQMNSLRSEDTAVYYCAKDGRGYSSFSHFGMDVWGQGTTVTVSS VL: DIQMTQSPSTLSASVGDRVTITCRASQSIGSWLAWYQQKPGKAPKLLIYKTSSLESGVPSRFSGSGSGTEFTLTISSLQPDDFASYYCQQYNSYSFGQGTKVEIK has what Maximum Activation (%) without ligand?
Given back: 1
